experiment: self-splicing fitness, log relative to wild type (ln ratio); higher = more splicing; Tetrahymena group I intron in knt gene, E. coli kanamycin selection, DiMSum; sequences stand for … in CUCUCU…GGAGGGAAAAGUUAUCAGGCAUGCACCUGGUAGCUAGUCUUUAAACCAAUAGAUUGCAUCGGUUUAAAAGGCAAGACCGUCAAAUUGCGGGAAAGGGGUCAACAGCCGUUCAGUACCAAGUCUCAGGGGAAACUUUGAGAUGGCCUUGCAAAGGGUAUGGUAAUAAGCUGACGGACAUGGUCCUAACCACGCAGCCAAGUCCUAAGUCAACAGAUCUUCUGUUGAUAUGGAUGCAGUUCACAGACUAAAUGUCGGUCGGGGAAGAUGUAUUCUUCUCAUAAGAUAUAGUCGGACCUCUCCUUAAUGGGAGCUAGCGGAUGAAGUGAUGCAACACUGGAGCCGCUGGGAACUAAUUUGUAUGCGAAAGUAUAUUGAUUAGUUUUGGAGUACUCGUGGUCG; settings: 37 °C;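 further: selection with 25 µg/mL kanamycin versus none on LB agar overnight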
// map self-splicing fitness (ln) to label using lower bin (below -2), middle bin (-2 to below -1), upper bin (-1 or more)

• AUCAAGCAAUAUUACGCCGA = upper bin
• UACAAGCAAUAUUACGCUAG = middle bin
• GCCUAGCAAUAUUACGAGUC = upper bin
• GCAUAGCAAUAUUACGCGAA = middle bin
• UUCGAGCAAUAUUACGAUAU = lower bin
• UCUCAGCAAUAUUACGUACU = middle bin
• CGCAAGCAAUAUUACGUCCC = upper bin
• CCUGAGCAAUAUUACGCGUU = lower bin
• UUGUAGCAAUAUUACGCAGU = lower bin
• AAAUAGCAAUAUUACGGGAG = middle bin
• GGUAAGCAAUAUUACGAUGG = lower bin
• CCAAAGCAAUAUUACGAGUA = lower bin
• UCAUAGCAAUAUUACGGAUU = lower bin
• GUCCAGCAAUAUUACGUUAC = upper bin
• UUGGAGCAAUAUUACGCGGA = middle bin
